Target: Bcl-2 (Homo sapiens, UniProt P10415, A37T/A38E/A42E/A43T/DEL46-86/G36R/G41E/P39A/P44E/P88R/P90T/S87E/V35N/V89E)
Construct: made in house
Sequence (P10415 with tags, fused parts or gaps with the stated changes): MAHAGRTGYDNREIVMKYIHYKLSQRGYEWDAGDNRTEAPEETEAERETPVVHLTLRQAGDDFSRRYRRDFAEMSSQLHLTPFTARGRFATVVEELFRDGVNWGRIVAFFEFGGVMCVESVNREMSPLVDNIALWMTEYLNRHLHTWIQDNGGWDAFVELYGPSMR
Test: Intrinsic tryptophan fluorescence quenching binding assay
Conditions: 10 μM Bcl-2, increasing CoA concentrations; read-out: Kd from tryptophan fluorescence quenching, single binding site model
reported endpoint: pKd
Answer as the number alone; pKd is minus log10 of concentration in mol/L.

Qu. Which pKd is reported for this compound? CC(C)(COP(=O)(O)OP(=O)(O)OC[C@H]1O[C@@H](n2cnc3c(N)ncnc32)[C@H](O)[C@@H]1OP(=O)(O)O)[C@@H](O)C(=O)NCCC(=O)NCCS
Ans. 3.42

* * *

Biological target: Bcl-2 (Homo sapiens, UniProt P10415, A37T/A38E/A42E/A43T/DEL46-86/G36R/G41E/P39A/P44E/P88R/P90T/S87E/V35N/V89E)
Construct: made in house
Assay: Intrinsic tryptophan fluorescence quenching binding assay
Settings: summary value in discussion; read-out: Kd for recombinant Bcl-2 in vitro
reported endpoint: Kd

Qu. Reported Kd for CC(C)(COP(=O)(O)OP(=O)(O)OC[C@H]1O[C@@H](n2cnc3c(N)ncnc32)[C@H](O)[C@@H]1OP(=O)(O)O)[C@@H](O)C(=O)NCCC(=O)NCCS : what is it?
Ans. ~350 µM

* * *

Target: hPPARγ-LBD (Homo sapiens, UniProt P37231)
Sequence (P37231 224-505): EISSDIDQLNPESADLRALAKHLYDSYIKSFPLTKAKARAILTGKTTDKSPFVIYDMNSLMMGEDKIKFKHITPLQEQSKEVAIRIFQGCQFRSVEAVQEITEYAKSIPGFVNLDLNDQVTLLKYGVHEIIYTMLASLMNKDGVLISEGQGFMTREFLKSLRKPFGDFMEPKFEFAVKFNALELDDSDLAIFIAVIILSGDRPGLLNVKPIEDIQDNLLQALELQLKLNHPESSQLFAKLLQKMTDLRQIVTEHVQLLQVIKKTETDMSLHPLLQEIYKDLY
Experiment: Fluorescence anisotropy titrations of fluorescein-labelled coactivator/corepressor peptides with hPPARγ-LBD in presence of ligand
pKd: −log10 of the molar value.
reported endpoint: pKd

Qu. Query (compound): CC(C)(COP(=O)(O)OP(=O)(O)OC[C@H]1O[C@@H](n2cnc3c(N)ncnc32)[C@H](O)[C@@H]1OP(=O)(O)O)[C@@H](O)C(=O)NCCC(=O)NCCS [Coenzyme A] ; field requested: pKd
Ans. > 3.30

Reference source: patent US20170316147A1
